Measured values drawn from PubChem BioAssay for this set.

- Protocol Summary: binders of probe aFGF10 on microarray, primary screen, stem cell growth factor project, biochemical, small-molecule microarray, fluorescence 635/667 (AID 1071);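 further: score merges 667 nm spot intensity and signal to noise from triplicate slides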
- Condition Set: higher = more signal

Compound	composite z-score
C[N+](C)(C)CCCCNC(=O)[C@@H]1C[C@@H]2C(=O)N[C@@H](Cc3ccccc3)C(=O)N2[C@@H]1c1cccc(OCCO)c1	0.394
COC(=O)[C@H](Cc1ccccc1)N[C@@H](/C=C/C1CC1)[C@H](O)Cc1ccccc1	0.699
COC(=O)C[C@H]1O[C@]2(C(=O)N(C)c3ccccc32)[C@@H](C)[C@@H]1[Si](C)(C)F	0.626
CC(C)N1C(=O)C[C@@](C(=O)NCC(F)(F)F)(c2ccc([N+](=O)[O-])cc2)[C@H]1c1ccc(CO)cc1	-0.336
C=CC[C@]1(C(=O)NCCCOC)N=C(c2ccc(OCCCO)cc2)O[C@H]1c1ccccc1CN=[N+]=[N-]	0.807
COc1cc2c(cc1OC)CN(C(=O)[C@@H]1[C@H]3C(=O)O[C@H](c4ccccc4)[C@H](c4ccccc4)N3[C@H](c3ccc(O)cc3)[C@@]13C(=O)Nc1ccccc13)CC2	0.257
C=CCOC(=O)[C@H]1[C@@H]2C(=O)O[C@@H](c3ccccc3)[C@@H](c3ccccc3)N2[C@@H](c2ccc(OCCOC(=O)[C@H]3C[C@H]4C(=O)N[C@@H](CCCCNC(C)=O)C(=O)N4[C@H]3c3cccc(OCCO)c3)cc2)[C@]12C(=O)Nc1ccccc12	0.732
COCCOC(=O)N1C(=O)[C@@]2(c3cc(C#CC4(O)CCCCCC4)ccc31)[C@H](c1ccc(OCCO)cc1)N1[C@H](c3ccccc3)[C@H](c3ccccc3)OC(=O)[C@H]1[C@@H]2C(=O)N1CCN(c2ncccn2)CC1	0.612
C=C(COC)/C(=C/C[C@@H](OC(=O)c1ccncc1)c1ccc(CO)o1)c1cc(C(=O)OC)ccc1OC	0.833
CC1CC/C=C\[C@H]2OC34C=CCN(Cc5ccccc5)C(=O)[C@H]3N(CCCO)C(=O)[C@@H]4C2C(=O)O1 (stereo not given in full)	-0.365
CC(C)C[C@@H]1NC(=O)[C@@H]2C[C@H](C(=O)NCc3ccc(F)cc3)[C@H](c3cccc(OCCO)c3)N2C1=O	0.362
COC(=O)C(CC#Cc1ccc2c(c1)[C@]1(C(=O)N2)[C@H](c2ccc(OCCO)cc2)N2[C@H](c3ccccc3)[C@H](c3ccccc3)OC(=O)[C@H]2[C@@H]1C(=O)Nc1nc2ccccc2s1)C(=O)OC	0.465
C=C(/C(=C/C[C@H](OC(C)=O)c1ccc(CO)o1)c1cc(C(=O)OC)ccc1OC)C(C)C	0.597
CN1C(=O)C2C=CC(C(O)c3ccco3)N(Nc3ccccc3)C2C1=O (stereo not given)	0.321
CCCC[C@H]1OB(O)C[C@H]2C1=C(COC)Cn1c(=O)n(-c3ccccc3)c(=O)n12	0.392
